The measurements presented in this section are drawn from PubChem BioAssay (NCI).

Recorded TGI values for a group of compounds are listed next.
Test system: K-562 leukemia
experiment notes: NCI tumour cell line growth inhibition, 48 h

>>> value("COc1cc(Nc2nccc(Nc3ccc4c(C)[nH]nc4c3)n2)cc(OC)c1OC")
"> 25 µM"
>>> value("CC[C@](O)(CC(=O)O[C@H]1C(=O)O[C@@H]2C[C@H]3C(C)=CC(=O)[C@@H](O)[C@]3(C)[C@H]3[C@@]4(O)OC[C@]32[C@@H]1[C@@H](C)[C@H]4O)C(C)C")
"< 0.01 µM"
>>> value("Cc1ccc2c(c1)C(=O)/C(=N/Nc1ccc(Cl)cc1)CCO2")
"> 100 µM"
>>> value("O=S(=O)(N/N=C/c1ccc(/C=N/NS(=O)(=O)c2ccccc2)cc1)c1ccccc1")
"98.5 µM"
>>> value("N#C/C(=C\\c1cn(Cc2ccccc2)c2ccccc12)c1nn(-c2ccccc2)c(N)c1C#N")
"> 100 µM"

# query: TGI of entry O=c1c2cc(Cl)ccc2oc2ccc(OCCCCCN3CCCCC3)cc12 7.55 µM

Next compound: C=CCC(N[C@H](CO)c1ccccc1)c1ccc2ccccc2n1 (stereo not given in full) > 100 µM

Would you kindly repeat that for CCOC(=O)C(Cl)(NC(=O)NC(Cl)(C(=O)OCC)C(F)(F)F)C(F)(F)F (stereo not given) ? > 100 µM

Note, next up: C=C(Cl)c1c(OC)cccc1OCc1ccccc1 > 100 µM

Lookup O=C(c1ccccc1)c1ccc2nc3n(c2c1)C(c1c(F)cccc1F)SC3 (stereo not given) > 100 µM
